- Test system: LXRa homodimer (NR concentration 270 nM)
- PROTOCOL_SUMMARY: PBM binding z-score (relative to random genomic background probes); higher = stronger binding; sequences stand for … in GC…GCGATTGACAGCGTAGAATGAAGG
MEASUREMENT_KIND: PBM binding z-score
Give bare numbers.

Below is a list of sequences. For each, state its recorded PBM binding z-score.
1. ACTAGCAGGCCAAGCGTCACTCAAGATTAGTCCG
2. ACTAGTTGGTCAGCTGAGGTCACTCACAATTCGG
3. AGAATGAGGTTACCACAGATCAGGGAAACGCTTG

1: -0.471; 2: 1.98; 3: -0.0372

Dear colleague, could you please provide PBM binding z-score for the sequences listed below?
1. ATAGGTAGGTTACATCCGGGTCATTCAGGCTATG
2. GCTAGCAGGCCATTTGGGTCACTCACTGACGGGC
3. ATCTCGAGGTAACCAAGTTCAGTGAATGCCGAAC

1. 1.3
2. -0.55
3. 0.25

====

- Tested on: RARa homodimer (NR concentration 270 nM)
- PROTOCOL_SUMMARY: PBM binding z-score (relative to random genomic background probes); higher = stronger binding; sequences stand for … in GC…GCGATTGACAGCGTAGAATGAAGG
Please map values of PBM binding z-score to classes as shown: lower: < -0.2; middle: ≥ -0.2 and < 1; upper: ≥ 1

Examples with answers:
SEQ_STRING: TCTATTAGTTGATTAGGGAAACCGAAACAGCGGA
QUALITATIVE_LABEL: upper
//
SEQ_STRING: CGAACTAGGTCATCCAGGAGAGTGAATACATTGA
QUALITATIVE_LABEL: middle
//
SEQ_STRING: CGAACTAGGTCAAGCACAGTGAATCTCCGCACGC
QUALITATIVE_LABEL: middle
//
SEQ_STRING: CATACAGGCTCAGCTAGGCCAGAGTAGGGACGGC
QUALITATIVE_LABEL: middle
//
SEQ_STRING: CTCGAAAGGTCGGTTGAGGTGAGTATACGGATAA
QUALITATIVE_LABEL: middle

Which category fits this record: `CGTCCATGGTCAGCAGGTCAGTGAAAGCGACGTG`
lower

Form field 'band' for `ATCTCTGGGTAACAAGTTCAGTGAAAGAGAGGAC`
upper

Class (by measured PBM binding z-score) for `TCGAGTAGGTTCGTCGGGGCATTCAGCCAACATA`
lower

====

- System: PPARg:RXRa DBDmut IVT, anti-RXR (DBD mutation: RXRa K156A/R161A, NR concentration 270 nM, RXRa partner concentration 90 nM)
- PROTOCOL_SUMMARY: PBM binding z-score (relative to random genomic background probes); higher = stronger binding; sequences stand for … in GC…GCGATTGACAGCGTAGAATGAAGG
MEASUREMENT_KIND: PBM binding z-score
Give bare numbers.

Batch lookup, PBM binding z-score per entry.
1. TAGCCTAGGTCATTCAGGGTCCAGTATAGAAAGC
2. AGAACGAGAGCACGCTGAGTTGATAGCAGAGTAG
3. ATATGTGGGTTAGCTGGGGTCATTCAGACTAGGC
4. TGTACAGGGTCAAAGGCCAGAGTACGAATGTCGA
5. CAGCCTAGGTCAGGGCCAGTAGAGGAGGAACGTT
6. ATATTTAGGTTATCGGGTCATTCAGTTTGCGCAT
7. GCAGACAGGTGAAACGCAGATAACTCAGGGTGGC

1.57
0.0563
6.16
2.29
1.54
6.89
1.09

For every listed record, write down its PBM binding z-score.
1. TTACCAATGTGAAGGTCGTTGATCCCTCTGTAGA
2. ATCTCTAGGTAACAACTTCAGTGAAAGAGAGGAC
3. ACAGACTGGTGAGTGAAGGTAACTCAGCTGGACG
4. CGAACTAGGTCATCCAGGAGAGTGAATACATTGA
5. CAAACTAGGTCACAGAGATCAAAGTCCGTGCGTA

0.314
3.07
-0.695
7.67
8.62

====

Please go through the items and note down their PBM binding z-score.
- Test system: PPARg:RXRa 90nM:30nM, anti-RXR (NR concentration 90 nM, RXRa partner concentration 30 nM)
- PROTOCOL_SUMMARY: PBM binding z-score (relative to random genomic background probes); higher = stronger binding; sequences stand for … in GC…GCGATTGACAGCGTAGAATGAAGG

Some sequences with known PBM binding z-score results, for comparison:
SEQ_STRING: TGAATGAGGTTGTAAGATCAGGGAACGTTGCAAA
MEASUREMENT_KIND: PBM binding z-score
EXPERIMENTAL_RESULT: 0.21
//
SEQ_STRING: TCGAGTAGGTTAGGCGGGGCATTCAGCCAACATA
MEASUREMENT_KIND: PBM binding z-score
EXPERIMENTAL_RESULT: 0.705
//
SEQ_STRING: CCTTACGGGTCACACCAGGTTATAGCATCGGAGT
MEASUREMENT_KIND: PBM binding z-score
EXPERIMENTAL_RESULT: 3.6
//
SEQ_STRING: ATATGTAGGTTAGCTGCGGTCATTCAGACTAGGC
MEASUREMENT_KIND: PBM binding z-score
EXPERIMENTAL_RESULT: 2.27
//
SEQ_STRING: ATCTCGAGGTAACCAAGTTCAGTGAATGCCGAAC
MEASUREMENT_KIND: PBM binding z-score
EXPERIMENTAL_RESULT: 0.304
//
SEQ_STRING: CAAACTAGGTCAAGGTCCAAGTCGGTTTGTGCCA
MEASUREMENT_KIND: PBM binding z-score
EXPERIMENTAL_RESULT: 7.89
//
SEQ_STRING: CCTGCTAGGTCAATGATCAGCTAAAGCAGCTCGC
MEASUREMENT_KIND: PBM binding z-score
EXPERIMENTAL_RESULT: 1.24
//
SEQ_STRING: TGGCCTAGGTCAGATCGGGCCAGTATACGCTATA
MEASUREMENT_KIND: PBM binding z-score
EXPERIMENTAL_RESULT: -0.369
//
SEQ_STRING: CAGCCTAGGTCCGGGCCAGTATAGGAGGAACGTT
MEASUREMENT_KIND: PBM binding z-score
EXPERIMENTAL_RESULT: -1.2
//
SEQ_STRING: TTGCCAAGGTGAGCTGAGGTCGTTGATCCAACTC
MEASUREMENT_KIND: PBM binding z-score
EXPERIMENTAL_RESULT: -0.564

Below is a list of sequences. For each, state its recorded PBM binding z-score.
1. AATAGCAGGCCAAGGGTCACTCAAGATTAGTCCG
2. GCTAGTTGGTCAGTAAAAGGCCACACACCGGTCG
3. TCATATAGGTAAACAGGTGAAATTCCGTAAGTTA
4. GCGACTGGGGCAAGGCAGGTTACCATAAGGTTGG
5. CCGACTGGGGCATAACGTTACCATAAGCCAGCCC
6. CATACAGGGTCAGCTATGCCAGAGTAGGGACGGC
7. TATAGAGGGTCAAAGGCCAGAGTACGAATGTCGA

1. 8.23
2. 0.378
3. 3.8
4. 0.000745
5. 0.117
6. 1.77
7. 7.09

Dear colleague, could you please provide PBM binding z-score for the sequences listed below?
1. CTCGAAAGGTCGGTTGAGGTGGGTATACGGATAA
2. AGAACGAGGGAAATGAGTTGATAGCACGGGTGGC
3. TAGCCTAGGTCATGCGGGCCCGTATAGTGTCGGC
4. CCGACTGGGGCATAAGGTTATCATAAGCCAGCCC
5. TCATATAGGTAGAAGGTGAAAGTCGGTGTGGTAA
6. CGTACTGGGCCAAAGGTCATTGATTCCAATGCTC
7. ACTATTAGTTGACTTAGGGCAACCTATACGACGC
8. CGTCAAAGTTCAAGGAAACGTAACAGAAAGCAGC

0.243
-0.319
1.22
3.18
7.35
12.9
0.444
3.29

====

Exercise: for every item that follows, state its recorded PBM binding z-score.
- Test system: RARb:RXRa (NR concentration 270 nM, RXRa partner concentration 90 nM)
- PROTOCOL_SUMMARY: PBM binding z-score (relative to random genomic background probes); higher = stronger binding; sequences stand for … in GC…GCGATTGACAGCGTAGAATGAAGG
Give bare numbers.

// worked examples, PBM binding z-score included
SEQ_STRING: CTCGAAAGGTCGGTTGAGGTGTGTATACGGATAA
PBM binding z-score: 2.68
//
SEQ_STRING: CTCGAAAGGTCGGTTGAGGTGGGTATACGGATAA
PBM binding z-score: 2.99
//
SEQ_STRING: CAGCCTAGGTCAGGGCCAGTATCGGAGGAACGTT
PBM binding z-score: 3.54
//
SEQ_STRING: AGAATGAGGGCACGCTGAGTTGATAGCAGAGTAG
PBM binding z-score: 2.62
//
SEQ_STRING: CAAACTAGGTCAAGAGGACAAAGTCCGCTTCCCG
PBM binding z-score: 4.37

Take each entry in turn and give its PBM binding z-score.
1. CCTACTGGGCCATTCAGAGTTCATTGATCATATG
2. CAAACTGGGTCAAAGGTCAAAGTCGAGCCAACCA
3. CCGAGTATGTTATGGGGCATTCAGGCAACGGTGA
4. GCATATAGGTAATACAAGGTGTAAGTCCGATTGT

1. 1.82
2. 5.44
3. 0.242
4. -0.269
